System: bedstraw
Test: Test B pre/postemergence bedstraw
Type: in vivo, Galium aparine
Conditions: Postemergence, Rate 125 g/ha; scale 0 to 10, 0 is no effect, 10 is complete control
Overview of reported Plant response rating, Bedstraw across a group of molecules:

A selection of reference data follows.
• Cc1c(-n2c(=O)on(C(=O)N(c3ccc(F)cc3)C(C)C)c2=O)ccc2ccccc12 = 2
• Cc1c(-n2c(=O)on(C(=O)N(c3ccc(F)cc3F)C(C)C)c2=O)ccc2ccccc12 = 1
• CC(C)N(C(=O)n1oc(=O)n(C2CCC2)c1=O)c1ccccc1 = 2

Could you now consider this next molecule?
Provide only the value of recorded Plant response rating, Bedstraw for CC(C)N(C(=O)n1oc(=O)n(C2CCCCCC2)c1=O)c1ccc(Cl)cc1
2

* * *

Attribute: Plant response rating, Crabgrass
Tested on: crabgrass
Experiment: Test B pre/postemergence crabgrass
Type: in vivo, Digitaria sanguinalis
Conditions: Preemergence, Rate 500 g/ha; scale of 0 to 10 where 0 is no effect and 10 is complete control
Answer field: number only, no words.

* Cc1ccccc1-n1c(=O)on(C(=O)N(c2ccc(F)cc2)C(C)C2CC2)c1=O (stereo not shown) | 9
* CC(C)N(C(=O)n1oc(=O)n(CC2=NOCCC2)c1=O)c1ccc(F)cc1 | 10
* CC(C)N(C(=O)n1oc(=O)n(CC(C)[N+](=O)[O-])c1=O)c1ccccc1 (stereo not shown) | 1
* CC(C)N(C(=O)n1oc(=O)n(CCCC#N)c1=O)c1ccc(F)cc1 | 9
* CC(C)N(C(=O)n1oc(=O)n(CC(=O)OC(C)(C)C)c1=O)c1ccc(F)cc1 | 6
* CC(C)N(C(=O)n1oc(=O)n(CC2CC2)c1=O)c1ccc(F)cc1 | 10

Identify measured Plant response rating, Crabgrass associated with CC(C)N(C(=O)n1oc(=O)n(CCC(F)=C(F)F)c1=O)c1ccc(F)cc1
7

* * *

Tested on: velvetleaf
Test: Test B pre/postemergence velvetleaf
Type: in vivo, Abutilon theophrasti
Settings: Preemergence, Rate 500 g/ha; scale 0 (no effect) to 10 (complete control)
Velvetleaf plant response rating values by entry

// known answers, use as guide
- Cc1ccccc1-n1c(=O)on(C(=O)N(c2ccc(Cl)cc2)C(C)C)c1=O: 0
- Cc1ccccc1-n1c(=O)on(C(=O)N(c2ccc(C#N)cc2)C(C)C)c1=O: 0
- CC(C)Oc1cc(-n2c(=O)on(C(=O)N(c3ccc(F)cc3)C(C)C)c2=O)c(Cl)cc1Cl: 0

Attention now turns to another entry.
Name the recorded Velvetleaf plant response rating of the item Cc1ccccc1-n1c(=O)on(C(=O)N(C2=CCOCC2)C(C)C)c1=O in your answer.
0

* * *

Tested on: corn
Assay: Test B pre/postemergence corn
Format: in vivo, Zea mays
Details: Rate 500 g/ha, Preemergence; scale 0 to 10 (0 no effect, 10 complete control)
Attribute: Corn plant response rating
# respond with the number and nothing more

Some entries whose results are on file:
• CC(C)N(C(=O)n1oc(=O)n(CCC(=O)N(C)C)c1=O)c1ccc(Cl)cc1 [Compound 719] = 5
• C#CC(C)n1c(=O)on(C(=O)N(c2ccc(F)cc2)C(C)C)c1=O (centres unmarked) [Compound 763] = 0
• C#CCn1c(=O)on(C(=O)N(c2ccc(F)cc2)C(C)C)c1=O [Compound 743] = 0
• CCOC(CC)n1c(=O)on(C(=O)N(c2ccc(Cl)cc2)C(C)C)c1=O (centres unmarked) [Compound 772] = 0

# input for lookup
Provide the reported Corn plant response rating (system: corn) for CC(C)N(C(=O)n1oc(=O)n(C(C)C(=S)N(C)C)c1=O)c1ccc(F)cc1 (centres unmarked) [Compound 728]
0

Sourced from patent US6737383B1
